target: human GLP-1R receptor (Homo sapiens); test: GLP-1R low expression cell assay (cAMP TR-FRET, CHO-K1_hGLP-1Rlow_clone10 cells); settings: cAMP TR-FRET, 30 min at 25° C.
measurement.name: EC50

1. COc1cc(Cl)ccc1COc1cccc(C2CCN(Cc3nc4c(OC)cc(C(=O)O)cc4n3C)CC2)n1 | < 10 nM
2. COc1cc(-c2nnn[nH]2)cc2c1nc(CN1CCC(c3cccc(OCc4ccc(Cl)cc4F)n3)CC1)n2C[C@@H]1CCO1 | < 10 nM
3. COc1c(F)c(C(=O)O)cc2nc(CN3CCC(c4cccc(OCc5ccc(Cl)cc5F)n4)CC3)n(C)c12 | > 1000 nM

Alright, here's another molecule for you.
Exam item: Answer with the recorded EC50 for the molecule listed here: C[C@]1(c2ccc(Cl)cn2)Oc2cccc(C3CCN(Cc4nc5c(OC6COC6)cc(C(=O)O)cc5n4C[C@@H]4CCO4)CC3)c2O1
Marked response: < 10 nM

----------
This section presents compounds with their documented Cmax values.
assay: Rat pharmacokinetics, oral dosing; format: in vivo, Sprague-Dawley rats; conditions: male, Sprague-Dawley, oral dosing at 3 mg/kg, plasma

1. COc1cc(C(=O)O)cc2c1nc(CN1CCC(c3cccc(OCc4ccc(Cl)cc4F)n3)CC1)n2C | > 5000 ng/mL
2. COCCOc1cc(C(=O)O)cc2c1nc(CN1CCC(c3cccc4c3O[C@@](C)(c3ccc(Cl)cn3)O4)CC1)n2C | < 500 ng/mL
3. Cn1c(N(C)[C@H]2CC[C@H](c3cccc(OCc4ccc(C#N)cc4F)n3)CC2)nc2c(OC(F)F)cc(C(=O)O)cc21 | 500 to 1000 ng/mL

Exam item: Answer with the recorded Cmax for the compound listed here: Cn1c(CN2CCC(c3cccc(OCc4ccc(Cl)cc4F)n3)CC2)nc2c(OC(F)F)cc(C(=O)O)cc21
Marked response: > 5000 ng/mL

Exam item: Answer with the recorded Cmax for the compound listed here: COc1cc(C(=O)O)cc2c1nc(Cc1cc(F)c(-c3cccc(OCc4ccc(C#N)cc4F)n3)cc1F)n2C
Marked response: 2000 to 5000 ng/mL

Exam item: Answer with the recorded Cmax for the compound listed here: COc1cc(C(=O)O)c(F)c2c1nc(CN1CCC(c3cccc(OCc4ccc(Cl)cc4F)n3)CC1)n2C
Marked response: 2000 to 5000 ng/mL

Exam item: Answer with the recorded Cmax for the compound listed here: C[C@]1(c2ccc(Cl)cn2)Oc2cccc(C3CCN(Cc4nc5c(OC6CC6)cc(C(=O)O)cc5n4Cc4cncs4)CC3)c2O1
Marked response: < 500 ng/mL

Exam item: Answer with the recorded Cmax for the compound listed here: Cn1c(CN2CCC(c3cccc4c3O[C@@](C)(c3ccc(Cl)cn3)O4)CC2)nc2c(OC(F)F)cc(C(=O)O)cc21
Marked response: 2000 to 5000 ng/mL

Exam item: Answer with the recorded Cmax for the compound listed here: COc1cc(C(F)(F)F)ccc1COc1cccc(C2CCN(Cc3nc4c(OC(F)F)cc(C(=O)O)cc4n3C)CC2)n1
Marked response: > 5000 ng/mL

----------
This section presents compounds with their documented Emax values.
biological target: human GLP-1R receptor (Homo sapiens, UniProt P43220); construct: expressed in transfected cells; test: GLP-1R low expression cell assay (cAMP TR-FRET, CHO-K1_hGLP-1Rlow_clone10 cells); type: cell-based; details: maximum activation relative to control GLP-1 peptide agonist
Sequence (P43220 24-463): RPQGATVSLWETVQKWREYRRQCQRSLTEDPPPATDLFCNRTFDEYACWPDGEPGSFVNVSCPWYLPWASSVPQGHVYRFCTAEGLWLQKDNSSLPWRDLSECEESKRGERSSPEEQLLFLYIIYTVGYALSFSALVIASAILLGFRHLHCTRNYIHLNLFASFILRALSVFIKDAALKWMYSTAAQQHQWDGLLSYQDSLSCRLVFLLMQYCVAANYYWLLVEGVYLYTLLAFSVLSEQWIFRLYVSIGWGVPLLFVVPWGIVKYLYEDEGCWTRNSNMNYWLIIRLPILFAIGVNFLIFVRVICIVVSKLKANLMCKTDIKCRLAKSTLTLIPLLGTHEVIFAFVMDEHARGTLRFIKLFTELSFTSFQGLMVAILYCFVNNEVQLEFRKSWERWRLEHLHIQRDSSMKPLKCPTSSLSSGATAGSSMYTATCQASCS

1) COc1cc(C(=O)O)cc2c1nc([C@H](C)N1CCC(c3cccc4c3O[C@@](C)(c3ccc(Cl)cn3)O4)CC1)n2C | > 85%
2) CS(=O)(=O)Nc1cc(C(=O)O)cc2c1nc(CN1CCC(c3cccc(OCc4ccc(C#N)cc4F)n3)CC1)n2C[C@@H]1CCO1 | > 85%
3) [2H]C([2H])(C)Oc1cc(C(=O)O)cc2c1nc(CN1CCC(c3cccc(OCc4ccc(Cl)cc4F)n3)CC1)n2C | > 85%

Exam item: Answer with the recorded Emax for the compound listed here: Cn1c(CN2CCC(c3cccc4c3O[C@H](c3ccc(C#N)cc3F)CO4)CC2)nc2c(OC(F)F)cc(C(=O)O)cc21
Marked response: 25 to 50%

Exam item: Answer with the recorded Emax for the compound listed here: O=C(O)c1cc(OC(F)F)c2nc(CN3CCC(c4cccc(OCc5ccc(Cl)cc5F)n4)CC3)n(CF)c2c1
Marked response: > 85%

Exam item: Answer with the recorded Emax for the compound listed here: N#Cc1ccc(COc2cccc(C3CCN(Cc4nc5c6c(c(C(=O)O)cc5n4C[C@@H]4CCO4)OCCO6)CC3)n2)c(F)c1
Marked response: > 85%

Exam item: Answer with the recorded Emax for the compound listed here: COc1cc(-c2nnn[nH]2)cc2c1nc(CN1CCC(c3cccc(OCc4ccc(Cl)cc4F)n3)CC1)n2C[C@@H]1CCO1
Marked response: 50 to 85%

Exam item: Answer with the recorded Emax for the compound listed here: Cn1c(CN2CCC(c3nc(OCc4ccc(Cl)cc4F)ccc3F)CC2)nc2c(OC(F)F)cc(C(=O)O)cc21
Marked response: 50 to 85%

Exam item: Answer with the recorded Emax for the compound listed here: Cn1c(CN2CCC(c3cccc(OCc4ccc(C#N)cc4F)c3Cl)CC2)nc2c(OC(F)F)cc(C(=O)O)cc21
Marked response: 25 to 50%

Exam item: Answer with the recorded Emax for the compound listed here: Cn1c(CN2CCC(c3cccc(OCc4ccc(Cl)cc4F)n3)CC2)nc2c(OC(F)F)cc(NCC(=O)O)cc21
Marked response: 50 to 85%

Exam item: Answer with the recorded Emax for the compound listed here: C[C@]1(c2ccc(Cl)cn2)Oc2cccc(C3CCN(Cc4nc5cc(C(=O)O)cc6c5n4CCO6)CC3)c2O1
Marked response: < 25%

----------
This section presents compounds with their documented pEC50 values.
target: human GLP-1R receptor (Homo sapiens, UniProt P43220); construct: expressed in transfected cells; assay: GLP-1R low expression cell assay (cAMP TR-FRET, CHO-K1_hGLP-1Rlow_clone10 cells); assay type: cell-based; conditions: cAMP TR-FRET, 30 min at 25° C.
pEC50: −log10 of the molar value.

1. Cn1c(CN2CCC(c3cccc(OCc4ccc(C#N)cc4F)c3)CC2)nc2c(OC(F)F)cc(C(=O)O)cc21 [Compound 111] | 6.00 to 7.00
2. Cn1c(CN2CCC(c3cccc(OCc4ccc(C#N)cc4F)n3)CC2)nc2c(N3CCOCC3)cc(C(=O)O)cc21 [Compound 112] | 6.00 to 7.00
3. COc1cc(C(=O)O)cc2c1nc([C@@H](C)N1CCC(c3cccc(OCc4ccc(C#N)cc4F)n3)CC1)n2C[C@@H]1CCO1 [Compound 94] | < 6.00
4. O=C(O)c1ccc2nc(CN3CCC(c4cccc(OCc5ccc(Cl)cc5F)n4)CC3)[nH]c2c1OC(F)F [Compound 210] | < 6.00
5. COCCn1c(CN2CCC(c3cccc(OCc4ccc(C#N)cc4F)n3)CC2)nc2c(OC(F)F)cc(C(=O)O)cc21 [Compound 106] | > 8.00
6. COc1cc(C(=O)O)c(F)c2c1nc(CN1CCC(c3cccc(OCc4ccc(C#N)cc4F)n3)CC1)n2C[C@@H]1CCO1 [Compound 117] | > 8.00

Exam item: Answer with the recorded pEC50 for the compound listed here: COc1cc(C(=O)O)cc2c1nc(Cc1cc(F)c(-c3cccc(OCc4ccc(Cl)cc4F)n3)cc1F)n2C [Compound 282]
Marked response: > 8.00

Exam item: Answer with the recorded pEC50 for the compound listed here: C[C@]1(c2ccc(Cl)cn2)Oc2cccc(C3CCN(Cc4nc5c(OC6CC6)cc(C(=O)O)cc5n4Cc4cncs4)CC3)c2O1 [Compound 6]
Marked response: > 8.00

----------
assay: Rat pharmacokinetics, oral dosing; format: in vivo, Sprague-Dawley rats; conditions: male, Sprague-Dawley, oral dosing at 3 mg/kg, plasma, read-out: Rat T1/2
This section presents compounds with their documented half-life values.

1) Cn1c(CN2CCC(c3cccc(OCc4ccc(Cl)cc4F)n3)CC2)nc2c(O)cc(C(=O)O)cc21 [Compound 307] | ≥ 2.5 h

Alright, here's another compound for you.
Exam item: Answer with the recorded half-life for the compound listed here: CCOc1cc(C(=O)O)cc2c1nc(CN1CCC(c3cccc(OCc4ccc(C#N)cc4F)n3)CC1)n2C [Compound 298]
Marked response: ≥ 2.5 h

----------
molecular target: human GLP-1R receptor (Homo sapiens, UniProt P43220); assay: GLP-1R low expression cell assay (cAMP TR-FRET, CHO-K1_hGLP-1Rlow_clone10 cells); conditions: cAMP TR-FRET, 30 min at 25° C.
pEC50: −log10 of the molar value.
measurement.name: pEC50

1. Cn1c(CN2CCC(c3cccc(OCc4ccc(C#N)cc4F)n3)CC2)nc2c(OCF)cc(C(=O)O)cc21 | > 8.00
2. C[C@]1(c2ccc(Cl)cn2)Oc2cccc(C3CCN(Cc4nc5cc(C(=O)O)cc6c5n4CCO6)CC3)c2O1 | < 6.00
3. Cn1c(CN2CCC(c3cccc(OCc4ccc(Cl)cc4F)n3)CC2)nc2c(OC3CC3)cc(C(=O)O)cc21 | > 8.00
4. Cn1c(CN2CCC(c3cccc4c3OC(c3ccc(Cl)cc3F)C=C4)CC2)nc2c(OC(F)F)cc(C(=O)O)cc21 (single isomer, unassigned) [Compound 176] | 6.00 to 7.00
5. Cn1c(CN2CCC(c3ncccc3OCc3ccc(C#N)cc3F)CC2)nc2c(OC(F)F)cc(C(=O)O)cc21 | < 6.00
6. Cn1c(CN2CCC(c3cccc4c3O[C@H](c3ccc(C#N)cc3F)CO4)CC2)nc2c(OC(F)F)cc(C(=O)O)cc21 | < 6.00

Exam item: Answer with the recorded pEC50 for the compound listed here: CCC(F)Oc1cc(C(=O)O)cc2c1nc(CN1CCC(c3cccc(OCc4ccc(Cl)cc4F)n3)CC1)n2C (stereo not drawn)
Marked response: 7.00 to 8.00

Exam item: Answer with the recorded pEC50 for the compound listed here: Cn1c(CN2CCC(c3cccc(OCc4ccc(Cl)cc4F)n3)CC2)nc2c(OC(F)CF)cc(C(=O)O)cc21 (single isomer, unassigned) [Compound 330]
Marked response: 7.00 to 8.00

Exam item: Answer with the recorded pEC50 for the compound listed here: N#Cc1ccc(COc2cccc(C3CCN(Cc4nc5ccc(C(=O)O)c6c5n4CCO6)CC3)n2)c(F)c1
Marked response: 6.00 to 7.00
